# tgt: human 5-HT3A receptor (Homo sapiens, UniProt P46098)
# Construct: expressed in transfected cells; cell membranes
# Sequence (P46098 24-478): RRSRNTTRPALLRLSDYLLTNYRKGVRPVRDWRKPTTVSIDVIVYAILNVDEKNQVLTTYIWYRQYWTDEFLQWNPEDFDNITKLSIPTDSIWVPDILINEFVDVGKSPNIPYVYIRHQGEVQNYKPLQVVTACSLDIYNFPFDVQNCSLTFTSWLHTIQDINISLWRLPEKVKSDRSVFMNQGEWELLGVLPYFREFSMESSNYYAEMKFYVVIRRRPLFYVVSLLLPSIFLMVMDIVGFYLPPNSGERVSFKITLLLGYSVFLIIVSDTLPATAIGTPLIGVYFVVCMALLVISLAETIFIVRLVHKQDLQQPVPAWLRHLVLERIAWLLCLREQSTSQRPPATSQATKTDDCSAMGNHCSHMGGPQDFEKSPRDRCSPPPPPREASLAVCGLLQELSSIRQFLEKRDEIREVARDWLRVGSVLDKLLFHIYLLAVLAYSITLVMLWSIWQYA
# experimental protocol: [3H]granisetron competition binding, HEK293 cell membranes stably expressing h5-HT3AR
test readout: pKi
Scale: negative log10 of molar concentration, which is what pKi denotes.

[[record]]
molecule = "COc1cccc2c(C(=O)NC3CC4CCCC(C3)N4C)nn(C)c12 (centres unmarked) [5b]"
test_readout = "pKi"
reading = 7.15


Now for another entry.
Ask: Report pKi, nothing else, for this molecule: COc1cccc2c1c(C(=O)NC1CC3CCCC(C1)N3C)nn2C (centres unmarked) [2b]
Reply: 7.58
